# System: HCT-116
# testDetails: NCI tumour cell line growth inhibition, 48 h
The source made the active and inactive calls. Cut-off read from the data, not from the text of the source: active = GI50 up to about 1.1 µM and inactive = higher.
endpointLabel: GI50

Worked examples follow.
CCCCCCCCC(O)C#CC(N)=O (stereo not drawn) | 3.67 µM (inactive)
Cn1cnc2nc(Cl)nc(NC(C)(C)C(C)(C)O)c21 | > 100 µM (inactive)
NC(CCCNCc1ccccc1O)C(=O)O (stereo not drawn) | > 100 µM (inactive)
CC(C)C(OC(=O)c1cc(NC(=S)c2ccccc2)ccc1Cl)C(C)C | 12.3 µM (inactive)
Cn1c2c([N+](=O)[O-])[se]nc2c(=O)n1-c1ccc([N+](=O)[O-])cc1 | 0.887 µM (active)
O=[N+]([O-])/C(C(Cl)=C(Cl)Cl)=C(\N1CCCCC1)n1cncn1 | 22.2 µM (inactive)
c1ccc2c(Nc3ncco3)cccc2c1 | > 10 µM (inactive)

Quick one: GI50 for CCOC(=O)C(=Cc1ccc(C(=O)OC)cc1)C(=O)OCC ? 3.33 µM (inactive)

* * *

# Tested on: IGROV-1
# testDetails: NCI tumour cell line growth inhibition, 48 h
Calls of active or inactive are those of the source. Rule as the data show it: active = GI50 up to about 1.1 µM and inactive = higher.
Outcomes you can answer with include only these: yes (1) (active), no (0) (inactive)

Nc1onc2c1Cc1c(noc1N)-c1ccccc1-2 | no (0)
Oc1cc(-c2cccc3ccccc23)nc2ncccc12 | yes (1)
Cc1c(-c2ccccc2)c(C#N)c2nnn(-c3ccc(Cl)cc3)c(=O)n12 | no (0)

Tell me the assay call for CN(C)CCNC1=C(Cl)C(=O)c2c(O)ccc(O)c2C1=O please. no (0)

Tell me the assay call for CCOC(=O)/C=C(\N=P(c1ccccc1)(c1ccccc1)c1ccccc1)C(F)(F)C(F)(F)C(F)(F)C(F)(F)C(F)(F)F please. no (0)

Tell me the assay call for CC(C)C1CO[C@]2(C)CCC(=O)N12 (stereo partly specified) please. no (0)

Tell me the assay call for O=C(O)c1cc2cc(c1)/N=C/c1ccccc1OCc1cccc(n1)COc1ccccc1/C=N/2 please. no (0)

Tell me the assay call for CCCCOC(=O)C1CN2C=CC=NC2=NC1(C(F)(F)F)C(F)(F)F (stereo unspecified) please. no (0)

Tell me the assay call for CN(C(=O)OC(C)(C)C)[C@H]1CCCC[C@H]1N1CCCC1 please. no (0)

Tell me the assay call for CC(=O)OC1C2CCC1C1C2C2(Cl)C(Cl)=C(Cl)C1(Cl)C2(Cl)Cl (stereo unspecified) please. no (0)

Tell me the assay call for CCCCN(CCCC)C1=Nc2ccccc2-n2c(nnc2C(=O)OCC)C1 please. no (0)

* * *

# System: UO-31
# testDetails: NCI tumour cell line growth inhibition, 48 h
Active and inactive are the calls of the source. No stated cut-off is given here; in the data, active = GI50 up to about 1.1 µM and inactive = higher. Where a SMILES comes first, the peptide text is derived from it. The star is where a group is joined. Boc = CC(C)(C)OC(=O)*; OSu = O=C1CCC(=O)N1O*
GI50: recorded values

Worked examples follow.
C[C@@]12CC[C@H]3[C@@H]4CCC(=O)N[C@@]4(C)CC[C@@H]3[C@@]1(C)CC[C@H](OC(=O)Cc1ccc(N(CCCl)CCCl)cc1)C2 | 17.8 µM (inactive)
CC(C)C(Nc1c2ccccc2[n+]([O-])c2ccccc12)C(=O)O (centres undefined) | 55.5 µM (inactive)

Quick one: GI50 for Clc1ccc(CCN2CCOCC2)c(Cl)c1 ? > 100 µM (inactive)

Quick one: GI50 for CCN(CC)CC(C(=O)Nc1c(C)cccc1C)/C(C)=N\NC(=O)C[N+](C)(C)C (centres undefined) ? > 100 µM (inactive)

Quick one: GI50 for COc1c(C)c(OC)c(C(=O)CC(C)C)c(OC)c1C ? 49.9 µM (inactive)

Quick one: GI50 for O=C1OCCC1(Cc1ccc(Cl)cc1)Cc1ccc(Cl)cc1 ? 54.7 µM (inactive)

Quick one: GI50 for CC(C)(C)OC(=O)NC(Cc1ccc(O)cc1)C(=O)NC(CCCCN)C(=O)NC(Cc1ccc(O)cc1)C(=O)NC(CCCCN)C(=O)ON1C(=O)CCC1=O (centres undefined) (Boc-YKYK-OSu; configuration not given here) ? > 100 µM (inactive)

Quick one: GI50 for COC(=O)c1cc(/C=C2\Cc3cc4c(cc3C2=O)CCC4)cc2c1CCC2 ? > 100 µM (inactive)
